tested on: Bacillus subtilis; experiment: cleaved RNA product abundance (RNA/gDNA barcode ratio) relative to median wild-type variant (ratio to wild type); higher = more accumulation of the downstream cleavage product; settings: experiment (reporter, strain, medium): exp 4a: truncated aprE reporter, strain BJT201 with 2% xylose (RNase J1 expressed); cleavage site: cggR-gapA (positions -7 to +36 mutated)
Each item that follows carries a reported cleaved RNA product abundance.
Outcome Measure: cleaved RNA product abundance

[[record]]
sequence_text = "ACAGACGAAGGAGCCGCAAAGAAGTTAATAAGGGATGAATATTCCCTCAATATAAATATCTCTCACTTATTTAAA"
outcome_measure = "cleaved RNA product abundance"
reported_result = 0.279

[[record]]
sequence_text = "ACAGACGAAGGAGCCGCAAAGAAGTTATTAAGGGATGAAAAATCCCTCATTATAAATATCTCTCACTTATTTAAA"
outcome_measure = "cleaved RNA product abundance"
reported_result = 0.331

[[record]]
sequence_text = "ACAGACGAAGGAGCCGCAAAGATGTTATTAAGGGATGAATAATCACTCAATATAAATATCTCTCACTTATTTAAA"
outcome_measure = "cleaved RNA product abundance"
reported_result = 0.181

[[record]]
sequence_text = "ACAGACGAAGGAGCCGCAAAGAAGTTATTAAGGGATGAATAATCCCTCAATATAAATATCTCTCACTTATTAAAG"
outcome_measure = "cleaved RNA product abundance"
reported_result = 0.971

[[record]]
sequence_text = "ACAGACGAAGGAGCCGCAAAGAAGATATTAAGTGATGAATAATCCCTCAATATAAATATCTCTCACTTATTTAAA"
outcome_measure = "cleaved RNA product abundance"
reported_result = 0.137

[[record]]
sequence_text = "ACAGACGAAGGAGCCGCAAAGAATTTATTACGGGATGAATAATCCCTCAATATAAATATCTCTCACTTATTTAAA"
outcome_measure = "cleaved RNA product abundance"
reported_result = 0.37

[[record]]
sequence_text = "ACAGACGAAGGAGCCGCAAAGGAGTTATTAAGTGATGAATAATCCCTCAATATAAATATCTCTCACTTATTTAAA"
outcome_measure = "cleaved RNA product abundance"
reported_result = 0.162

[[record]]
sequence_text = "ACAGACGAAGGAGCCGCAAAGAAGTTATTAAGAGATGAATAAGCCCTCAATATAAATATCTCTCACTTATTTAAA"
outcome_measure = "cleaved RNA product abundance"
reported_result = 0.0929

[[record]]
sequence_text = "ACAGACGAAGGAGCCGCAAAGAAGTTATTAAGAGATGAATAATCCCTCAATATAAATATATCTCACTTATTTAAA"
outcome_measure = "cleaved RNA product abundance"
reported_result = 0.193

[[record]]
sequence_text = "ACAGACGAAGGAGCCGCAAAGAAGTTATTAAGGGATCGATAATCCCTCAATATAAATATCTCTCACTTATTTAAA"
outcome_measure = "cleaved RNA product abundance"
reported_result = 0.722

[[record]]
sequence_text = "ACAGACGAAGGAGCCGCAAAGAAGTTATTCAGGTATAAATAATCCCTCAATATAAATATCTCTCACTTATTTAAA"
outcome_measure = "cleaved RNA product abundance"
reported_result = 0.118

[[record]]
sequence_text = "ACAGACGAAGGAGCCGCAAAGAACTTATAAAGGGACGAATAATCCCTCAATATAAATATCTCTCACTTATTTAAA"
outcome_measure = "cleaved RNA product abundance"
reported_result = 0.162

[[record]]
sequence_text = "ACAGACGAAGGAGCCGCAAAGAAGTTATTAAGAGATGAATAATCCGTCAATATAAATATCTCTCACTTATTTAAA"
outcome_measure = "cleaved RNA product abundance"
reported_result = 0.0917

[[record]]
sequence_text = "ACAGACGAAGGAGCCGCAAAAAAATTATTAAGGGATGAATAATCCCTCAATATAAATATCTCTCACTTATTTAAA"
outcome_measure = "cleaved RNA product abundance"
reported_result = 1.04

[[record]]
sequence_text = "ACAGACGAAGGAGCCGCAATGAAGTTATTAAGGGATGAATATTCCCTCAATATAAATATCTCTCACTTATTTAAA"
outcome_measure = "cleaved RNA product abundance"
reported_result = 0.519

[[record]]
sequence_text = "ACAGACGAAGGAGCCGCAACGAAGTTATTAAGGGATGAATAAACCCTCAATATAAATATCTCTCACTTATTTAAA"
outcome_measure = "cleaved RNA product abundance"
reported_result = 0.538

[[record]]
sequence_text = "ACAGACGAAGGAGCCGCAAAGAAGTTATTAACGGATGAATAATCCCTCAATATACATATCTCTCACTTATTTAAA"
outcome_measure = "cleaved RNA product abundance"
reported_result = 0.231

[[record]]
sequence_text = "ACAGACGAAGGAGCCGCAAAGAAGTTATTAAGAGATGAATAATACCTCAATTTAAATATCTCTCACTTATTTAAA"
outcome_measure = "cleaved RNA product abundance"
reported_result = 0.0323

[[record]]
sequence_text = "ACAGACGAAGGAGCCGCAAAGTAGTTATTAAGGGATGAATAATCTCTCAATATAAATATCTCTCACTTATTTAAA"
outcome_measure = "cleaved RNA product abundance"
reported_result = 0.802

[[record]]
sequence_text = "ACAGACGAAGGAGCCGCAAAGAAGTTATTAAGGGATGAATAATCCCACAATATATATATCTCTCACTTATTTAAA"
outcome_measure = "cleaved RNA product abundance"
reported_result = 0.303

[[record]]
sequence_text = "ACAGACGAAGGAGCCGCAAAGAAGTTATTAAGGCATGAATTATCCCTCAATATAAATATCTCTCACTTATTTAAA"
outcome_measure = "cleaved RNA product abundance"
reported_result = 0.132

[[record]]
sequence_text = "ACAGACGAAGGAGCCGCAAAGAAGTTATTAAGGGATTAATAATCCCTCATTATAAATATCTCTCACTTATTTAAA"
outcome_measure = "cleaved RNA product abundance"
reported_result = 0.534

[[record]]
sequence_text = "ACAGACGAAGGAGCCGCAAAGAAGTTATTAAGGGATGAATAATTCATCAATATAAATATCTCTCACTTATTTAAA"
outcome_measure = "cleaved RNA product abundance"
reported_result = 0.201

[[record]]
sequence_text = "ACAGACGAAGGAGCCGCAAAGAAGTTATTAAGGGATGAATAATCTCTCAATATAAATATCTCTCACTTATTTAAA"
outcome_measure = "cleaved RNA product abundance"
reported_result = 0.738

[[record]]
sequence_text = "ACAGACGAAGGAGCCGCAAAGAAGTTATTAAGGGATGAATAATCCCTCATATAAATATCTCTCACTTATTTAAAG"
outcome_measure = "cleaved RNA product abundance"
reported_result = 0.256

[[record]]
sequence_text = "ACAGACGAAGGAGCCGCAAAGAAGTTATTAAAGGATGAATAATCTCTCAATATAAATATCTCTCACTTATTTAAA"
outcome_measure = "cleaved RNA product abundance"
reported_result = 0.149

[[record]]
sequence_text = "ACAGACGAAGGAGCCGCAAAGAAGTTATTTAGGGATGAATAATCCCTCAATATAAACATCTCTCACTTATTTAAA"
outcome_measure = "cleaved RNA product abundance"
reported_result = 0.701

[[record]]
sequence_text = "ACAGACGAAGGAGCCGCAAAGAAGTTATTCATGGATGAATAATCCCTCAATATAAATATCTCTCACTTATTTAAA"
outcome_measure = "cleaved RNA product abundance"
reported_result = 0.137

[[record]]
sequence_text = "ACAGACGAAGGAGCCGCAAAGAAGTTATTAAGGTATGAATAATCCCTCAATATAATTATCTCTCACTTATTTAAA"
outcome_measure = "cleaved RNA product abundance"
reported_result = 0.0923

[[record]]
sequence_text = "ACAGACGAAGGAGCCGCAAAGAAGCTATTAAGGGATGAATAATCCCTGAATATAAATATCTCTCACTTATTTAAA"
outcome_measure = "cleaved RNA product abundance"
reported_result = 0.343

